Hello, the source for this data is patent EP2678315B1, in case you need it.

- targetOrSystem: human alpha 7-wt nAChR (Homo sapiens, UniProt P36544)
- Construct: expressed in transfected cells
- Sequence (P36544 23-502): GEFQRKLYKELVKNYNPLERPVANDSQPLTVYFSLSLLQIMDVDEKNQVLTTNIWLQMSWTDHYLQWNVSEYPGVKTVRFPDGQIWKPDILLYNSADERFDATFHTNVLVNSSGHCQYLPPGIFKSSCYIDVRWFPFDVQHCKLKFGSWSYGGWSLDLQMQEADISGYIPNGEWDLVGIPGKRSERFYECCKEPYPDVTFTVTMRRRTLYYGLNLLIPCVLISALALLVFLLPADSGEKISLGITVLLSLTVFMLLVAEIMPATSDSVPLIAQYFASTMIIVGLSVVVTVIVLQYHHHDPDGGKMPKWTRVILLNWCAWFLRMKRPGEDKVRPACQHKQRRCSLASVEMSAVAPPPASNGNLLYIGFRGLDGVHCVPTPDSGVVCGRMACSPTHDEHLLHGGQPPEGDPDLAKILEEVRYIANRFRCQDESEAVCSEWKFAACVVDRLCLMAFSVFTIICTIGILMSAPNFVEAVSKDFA
- methodSummary: Ca2+ flux imaging (FDSS) (protocol B)
- Assay type: cell-based
- conditionDetails: read-out: % Efficacy
Returns one of 1.0 or 0.0; 1.0 when Emax is >= 600%.

compound	group
Cc1cc(-c2c(F)cc(N3CCCC(C(F)(F)F)C3)cc2CNC(=O)CC2CC2)cc(C)n1 (stereo not shown) [Compound 95]	0.0
Cc1cc(-c2ccc(N3C[C@H](C(F)(F)F)C[C@H](C(F)(F)F)C3)cc2CNC(=O)C(C)C)cc(C)n1 [Compound 23]	0.0
Cc1cc(-c2c(F)cc(N3CCO[C@@H](C(F)(F)F)C3)cc2CNC(=O)C2CC2)cc(C)n1 [Compound 102]	1.0
Cc1cc(-c2c(F)cc(N3CCO[C@H](C(F)(F)F)C3)cc2CNC(=O)CC(C)C)cc(C)n1 [Compound 110]	0.0
Cc1cc(-c2ccc(N3C[C@@H](C)O[C@@H](C)C3)cc2CNC(=O)c2conc2C)ccn1 [Compound 12]	0.0
Cc1cc(-c2c(F)cc(N3CCOC(C)C3)cc2CNC(=O)C2CC2)cc(C)n1 (stereo not shown) [Compound 115]	0.0
Cc1cc(-c2c(F)cc(N3C[C@@H](C)O[C@@H](C)C3)cc2CNC(=O)C2CCC2)cc(C)n1 [Compound 85]	1.0
